- Assayed Target: T1, HMMW micropeptide (recombinant, purified from Escherichia coli BL21) (human)
- T1 construct: also called purified HMMW micropeptide; human HMMW micropeptide
- T1 peptide: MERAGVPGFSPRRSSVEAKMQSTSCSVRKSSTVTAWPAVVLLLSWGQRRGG
- Assay Method Text: indirect ELISA, HMMW micropeptide coated at 1 ug/ml, antibody dilution 1:50K
Metric Name: ELISA reading at antibody dilution 1:50K
The reply should be a number, written without any unit.

Reference set (5 entries):
Anti-HMMW antibody-2 (antibody, V domains shown, Mouse monoclonal antibody from a BALB/c x SP2/0 hybridoma; also called anti-HMMW-2 antibody) VH: EVKLEESGGGLVQPGGSMKVSCVGSGFTFSNYWMNWVRQSPEKGLEWVAEIRLKSNNYATHYAESVKGRFTISRDDSKRSVYLQMNNLRVEDTGIYYCTTEAVDYWGQGTSVTVSS VL: DIVMTQAAFSNPVTLGTSASISCRSSKSLLHSNGITYLYWYLQKPGQSPQLLIYQMSNLASGVPDRFSSSGSGTDFTLRISRVEAEDVGVYYCAQNLELPTFGGGTKLEIKR; 2.94
Anti-HMMW antibody-1 (antibody, V domains shown, Mouse monoclonal antibody from a BALB/c x SP2/0 hybridoma; also called anti-HMMW-1 antibody) VH: EVKLEESGGGLVQPGGSMKFSCVASGFTFSNYWMNWVRQSPERGLEWVAEIKLKSNNYATLYAESVKGRFTISRDDSKSSVYLQVNNLRAEDTGIYYCITEIFDYWGQGTTLTVSS VL: QAVVTQESALTTSPGETVTLTCRSSTGAVTTSNYATWVQEKPDHLFTGLIVGANNRAPGVPARFSGSLIGDKAALTITGAQTEDEAIYFCALWFLNHWVFGGGTKLTVLG; 1.85
Anti-HMMW antibody-5 (antibody, V domains shown, Mouse monoclonal antibody from a BALB/c x SP2/0 hybridoma; also called anti-HMMW-5 antibody) VH: EVKLEESGGGLVQPGGSMKLSCVVSGFTFSNYWMNWVRQSPERGLEWVAEIKLKSNNYATLYAASVKGRFTISRDDSKSSVYLQVNNLRTEDTGIYYCITEIFDYWGQGTTLTVSS VL: QTVVTQESALTTSPGETVTLTCRSSTGSVTTSNYATWVQEKPDHLFTGLIVGANNRAPGVPARFSGSLIGDKAALTITGAQTEDEAIYFCALWFIDHWVFGGGTKLTVL; 2.31
Anti-HMMW antibody-3 (antibody, V domains shown, Mouse monoclonal antibody from a BALB/c x SP2/0 hybridoma; also called anti-HMMW-3 antibody) VH: EVKLEESGGGLVQPGGSMKLSCVASGFTFSDYWMNWVRQSPEKGLEWLTEIRLKSDNYATHYAESVKGKFTISRDDSKSTVYLQMNNLRAEDTGIYYCSVETMDFWGQGTSVTVSS VL: QAVVTQESALTTSPGETVTLTCRSSIGAVTTNNYANWVQEKPDRLFTGLIRGTNNRVPGVPARFSGSLIGDKAALTITGAQTEDEAIYFCALWYSNHWVFGGGTKLTVL; 2.92
Anti-HMMW antibody-4 (antibody, V domains shown, Mouse monoclonal antibody from a BALB/c x SP2/0 hybridoma; also called anti-HMMW-4 antibody) VH: EVKLEESGGGLVQPGGSMKLSCVASGFTFSDYWMNWVRQSPEKGLEWLTEIRLKSNNYLTHYAESVKGRFTISRDDSKSSVYLQMNNLRAEDTGIYYCSVETMDYWGQGISVTVSS VL: QAVVTQESALTTSSGETVTLTCRSSTGAVTTSNYANWVQEKPDHLFTGLIRGTNNRAPGVPARFSGSLIGDKAALTITGAQTEDEAIYFCALWYSNHWVFGGGTKLTVL; 2.81

Pending binder:
Which ELISA reading at antibody dilution 1:50K reading was recorded for the binder Anti-HMMW antibody-6 (antibody, V domains shown, Mouse monoclonal antibody from a BALB/c x SP2/0 hybridoma; also called anti-HMMW-6 antibody) VH: EVKLEESGGGLVQPGGSMKLSCVASGFTFSNYWMNWVRQSPEKGLEWVAEIRLKSNNYATHYAESVTGRFTISRDDSKSSVYLQMNNLRAEDTGIYYCTLEAVDYWGQGTSVTVSS VL: DIVMTQAAFSNPVTLGTSASISCRSSKSLLHSDGITYLYWFLQKPGQSPQLLIYQMSNLASGVPDRFSSSGSGTDFTLRISRVEAEDVGVYYCAQNLELPTFGGGTKLEIK ?
2.2
